biological target: Histone acetyltransferase GCN5 (Saccharomyces cerevisiae S288c, UniProt Q03330)
Sequence (Q03330 whole entry): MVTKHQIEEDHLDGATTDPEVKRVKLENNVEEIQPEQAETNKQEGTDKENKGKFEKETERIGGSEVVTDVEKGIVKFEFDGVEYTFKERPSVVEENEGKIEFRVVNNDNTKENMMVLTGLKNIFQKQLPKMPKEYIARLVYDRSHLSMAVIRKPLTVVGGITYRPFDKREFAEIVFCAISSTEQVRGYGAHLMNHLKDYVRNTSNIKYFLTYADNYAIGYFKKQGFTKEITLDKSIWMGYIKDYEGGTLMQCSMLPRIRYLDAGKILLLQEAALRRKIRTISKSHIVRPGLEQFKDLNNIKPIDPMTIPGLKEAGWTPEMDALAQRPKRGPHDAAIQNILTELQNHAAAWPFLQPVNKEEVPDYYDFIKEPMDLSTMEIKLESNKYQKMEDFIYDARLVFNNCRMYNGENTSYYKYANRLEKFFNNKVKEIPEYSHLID
outcome.measure: pKd
// pKd: -log10(molar conc.)

Bench note, Histone acetyltransferase GCN5 (Saccharomyces cerevisiae S288c, UniProt Q03330): entry CC1(C)CC(=O)C2=C(C1)NC1=C(C(=O)CC(C)(C)C1)C2c1cc(Br)c(OCc2ccc(C(=O)O)cc2)c(Br)c1 , its pKd = 5.38

====

pIC50, Histone acetyltransferase GCN5 (Saccharomyces cerevisiae S288c): measured values
Note on pIC50: it is the negative log10 of concentration, concentration in mol/L.

The examples below pair each entry with its known result.
{"columns": ["molecule", "outcome.measure", "numeric.readout"],
 "data": [
  ["O=C(O)c1ccc(-c2nc3c4ccccc4c4ccccc4c3[nH]2)cc1", "pIC50", 5.07],
  ["O=C(O)c1ccc(COc2ccccc2Br)cc1", "pIC50", 4.09],
  ["CC1(C)CC(=O)C2=C(C1)NC1=C(C(=O)CC(C)(C)C1)C2c1cc(Br)c(OCc2ccc(C(=O)O)cc2)c(Br)c1", "pIC50", 5.17],
  ["O=C1CCCC2=C1C(c1cc(Cl)c(OCc3ccc(C(=O)O)cc3)c(Cl)c1)C1=C(CCCC1=O)N2", "pIC50", 4.46],
  ["O=C1CCCC2=C1C(c1ccc(OCc3ccc(C(=O)O)cc3)cc1)c1ccc3ccccc3c1N2 (stereo unspecified)", "pIC50", 4.47]
]}

Let us move to another entry and its pIC50.
# lookup: COC(=O)c1cc(NC(=O)Cc2cccs2)cc(C(=O)OC)c1 on Histone acetyltransferase GCN5 (Saccharomyces cerevisiae S288c), pIC50 = 5.54

====

Listed next: entries and their corresponding inhibition.
target: Histone acetyltransferase GCN5 (Saccharomyces cerevisiae S288c) (UniProt Q03330); experiment: Inhibition of yeast GCN5 (99 to 262 residues) expressed in Escherichia coli BL21 (DE3) at 33 uM preincubated for 15 mins followed by biotin tagged H3 peptide ( 1 to 23 residues) and [3H]-Ac-CoA addition and measured after 60 mins by radioactive acetylation assay
Write it as a number; the unit % goes unstated.

{"columns": ["compound", "outcome.measure", "unit.abbreviation", "numeric.readout"],
 "data": [
  ["CC1(C)CC(=O)C2=C(C1)NC1=C(C(=O)CC(C)(C)C1)C2c1ccc(OCc2ccccc2)c(Br)c1", "inhibition", "%", 15],
  ["CC1(C)CC(=O)C2=C(C1)NC1=C(C(=O)CC(C)(C)C1)C2c1ccc(O)c(Br)c1", "inhibition", "%", 18],
  ["O=C1CCCC2=C1C(c1ccc(OCc3cccc(F)c3)c(Br)c1)C1=C(CCCC1=O)N2", "inhibition", "%", 26],
  ["COc1cc(C2C3=C(CCCC3=O)NC3=C2C(=O)CCC3)ccc1OCc1ccc(C(=O)O)cc1", "inhibition", "%", 24]
]}

Now consider a different compound.
Recorded inhibition (compound CC1=C(C#N)C(c2ccc(OCc3ccc(C(=O)O)cc3)cc2)C2=C(CCCC2=O)N1 (stereo not given) ): 34
